testTarget: T1, ECF34_1384
T1 chain: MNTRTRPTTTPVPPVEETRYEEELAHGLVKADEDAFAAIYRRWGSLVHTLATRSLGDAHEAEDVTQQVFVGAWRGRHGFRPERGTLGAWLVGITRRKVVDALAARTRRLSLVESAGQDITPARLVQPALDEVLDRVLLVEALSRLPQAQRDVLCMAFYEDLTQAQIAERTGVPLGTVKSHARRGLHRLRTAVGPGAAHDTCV
attributeMeasured: fold repression
Hey, just send me the number, nothing else.

Previously resolved entries follow.
binder	fold repression
AS20_992 (protein) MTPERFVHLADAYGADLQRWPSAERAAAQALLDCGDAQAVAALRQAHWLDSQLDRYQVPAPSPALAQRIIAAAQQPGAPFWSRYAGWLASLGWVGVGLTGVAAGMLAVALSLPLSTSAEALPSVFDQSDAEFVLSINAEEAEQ	1.64
AS02_915 (protein) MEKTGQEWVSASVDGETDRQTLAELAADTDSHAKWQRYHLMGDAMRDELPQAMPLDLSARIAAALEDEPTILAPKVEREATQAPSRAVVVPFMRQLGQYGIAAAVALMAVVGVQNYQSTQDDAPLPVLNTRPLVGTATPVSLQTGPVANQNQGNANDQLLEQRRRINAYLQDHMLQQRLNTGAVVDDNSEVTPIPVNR	3.28

// next item, fold repression requested
Input: Give its fold repression value. Item: AS25_1645 (protein) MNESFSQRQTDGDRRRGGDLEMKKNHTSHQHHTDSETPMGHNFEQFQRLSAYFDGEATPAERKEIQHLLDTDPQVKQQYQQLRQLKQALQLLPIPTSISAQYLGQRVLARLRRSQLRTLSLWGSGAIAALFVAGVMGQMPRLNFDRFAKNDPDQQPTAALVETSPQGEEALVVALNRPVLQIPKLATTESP
Output: 7.62
